Reference source for all entries: patent US9969752B2

target: Human HIF-PHD2 (Homo sapiens, UniProt Q9GZT9); construct: FLAG-tagged full length PHD2 expressed in and purified from baculovirus-infected Sf9 cells; FLAG; made in house; host or cells: baculovirus-infected Sf9 cells; experiment: Inhibition of the hydroxylation of a HIF peptide by PHD2 (time resolved fluorescence, 384-well); assay type: biochemical; conditions: FLAG-tagged full length PHD2; 0.2 μM 2-oxoglutarate, 0.5 μM HIF-1α peptide; 45 minutes at room temperature; read-out: MS m/z (M + 1)+ and human HIF-PHD2 IC50
Sequence (Q9GZT9 whole entry): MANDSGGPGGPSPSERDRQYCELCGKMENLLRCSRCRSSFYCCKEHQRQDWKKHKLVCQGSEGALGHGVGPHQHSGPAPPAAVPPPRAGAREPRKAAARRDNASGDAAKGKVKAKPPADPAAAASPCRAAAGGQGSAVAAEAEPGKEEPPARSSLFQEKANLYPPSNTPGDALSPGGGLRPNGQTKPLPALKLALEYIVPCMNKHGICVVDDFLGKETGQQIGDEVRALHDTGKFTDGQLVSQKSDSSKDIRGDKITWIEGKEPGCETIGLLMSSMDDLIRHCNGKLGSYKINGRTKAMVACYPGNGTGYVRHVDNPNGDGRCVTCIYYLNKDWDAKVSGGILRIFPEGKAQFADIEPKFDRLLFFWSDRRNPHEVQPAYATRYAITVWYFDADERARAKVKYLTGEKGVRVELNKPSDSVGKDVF
pIC50: −log10 of the molar value.
Answer no if pIC50 is under 8, and yes if it is 8 or more.

> print(dat)
                                   compound                             tested.system  class
1  O=C(O)CNC(=O)c1c(O)c2cccc3c2n(c1=O)CC(c1ccc(C(F)(F)F)cc1)[S+]3[O-] (stereo not drawn)  Human HIF-PHD2 (Homo sapiens, UniProt Q9GZT9)    yes
2  N#Cc1cc2c3c(c1)c(O)c(C(=O)NCC(=O)O)c(=O)n3C(c1ccc(C(F)(F)F)cc1)CO2 (stereo not drawn)  Human HIF-PHD2 (Homo sapiens, UniProt Q9GZT9)    yes
3  O=C(O)CNC(=O)c1c(O)c2ccc(Br)c3c2n(c1=O)C(c1cncs1)CO3 (stereo not drawn)  Human HIF-PHD2 (Homo sapiens, UniProt Q9GZT9)    yes

pIC50 >= 8 for O=C(O)CNC(=O)c1c(O)c2cccc3c2n(c1=O)C(c1ccc(-c2ccncc2)cc1)CO3 (stereo not drawn) ?
yes

pIC50 >= 8 for O=C(O)CNC(=O)c1c(O)c2cccc3c2n(c1=O)C(c1cnc(C(F)(F)F)s1)CO3 (stereo not drawn) ?
yes

pIC50 >= 8 for O=C(O)CNC(=O)c1c(O)c2cc(Br)cc3c2n(c1=O)C(c1ccc(C(F)(F)F)cc1)CO3 (stereo not drawn) ?
no

pIC50 >= 8 for O=C(O)CNC(=O)c1c(O)c2cccc3c2n(c1=O)C(c1cccc(C(F)(F)F)c1)CO3 (stereo not drawn) ?
no

----------
target: Human HIF-PHD2 (Homo sapiens); construct: FLAG-tagged full length PHD2 expressed in and purified from baculovirus-infected Sf9 cells; FLAG; made in house; host or cells: baculovirus-infected Sf9 cells; experiment: Inhibition of the hydroxylation of a HIF peptide by PHD2 (time resolved fluorescence, 384-well); assay type: biochemical; details: FLAG-tagged full length PHD2; 0.2 μM 2-oxoglutarate, 0.5 μM HIF-1α peptide; 45 minutes at room temperature; read-out: Human HIF-PHD2 IC50
OBSERVABLE: pIC50
pIC50 is defined as minus the log10 of a concentration measured in mol/L.

Field: example entries. Status: answers known.
> print(dat)
                                   compound  observable  numeric.readout
1  O=C(O)CNC(=O)c1c(O)c2cccc3c2n(c1=O)CC(c1cncs1)C3 (single isomer, unassigned) [Example 50b]       pIC50             8.08
2  Cc1cc2c3c(c1)c(O)c(C(=O)NCC(=O)O)c(=O)n3CCO2       pIC50             7.62
3  O=C(O)CNC(=O)c1c(O)c2cc(Br)cc3c2n(c1=O)CC(c1ccc(Br)cc1)O3 (centres unmarked)       pIC50             8.46
4  CS(=O)(=O)c1ccc2c(O)c(C(=O)NCC(=O)O)c(=O)n3c2c1OC(c1ccc(C(F)(F)F)cc1)C3 (single isomer, unassigned) [Example 24]       pIC50             8.89
5  O=C(O)CNC(=O)c1c(O)c2ccc(Br)c3c2n(c1=O)CC(c1ccc(Br)cc1)O3 (centres unmarked)       pIC50             8.57

Look up pIC50 with Human HIF-PHD2 (Homo sapiens) for this compound: Cc1cc2c3c(c1)c(O)c(C(=O)NCC(=O)O)c(=O)n3CC(c1ccc(C(F)(F)F)cc1)O2 (centres unmarked)
8.25

Look up pIC50 with Human HIF-PHD2 (Homo sapiens) for this compound: Cc1ccc2c3c1c(O)c(C(=O)NCC(=O)O)c(=O)n3C(Cc1ccc(C(F)(F)F)cc1)CO2 (centres unmarked)
7.41

Look up pIC50 with Human HIF-PHD2 (Homo sapiens) for this compound: O=C(O)CNC(=O)c1c(O)c2cccc3c2n(c1=O)CC(c1ccc(C(F)(F)F)nc1)C3 (centres unmarked)
8.30

Look up pIC50 with Human HIF-PHD2 (Homo sapiens) for this compound: O=C(O)CNC(=O)c1c(O)c2cc(Br)cc3c2n(c1=O)C(Cc1ccc(C(F)(F)F)cc1)CO3 (centres unmarked)
7.74

Look up pIC50 with Human HIF-PHD2 (Homo sapiens) for this compound: N#Cc1ccc2c(O)c(C(=O)NCC(=O)O)c(=O)n3c2c1OCC3c1ccc(C(F)(F)F)cc1 (centres unmarked)
8.27

Look up pIC50 with Human HIF-PHD2 (Homo sapiens) for this compound: CS(=O)(=O)c1cc2c3c(c1)c(O)c(C(=O)NCC(=O)O)c(=O)n3CC(c1ccc(C(F)(F)F)nc1)C2 (centres unmarked)
9.05

Look up pIC50 with Human HIF-PHD2 (Homo sapiens) for this compound: O=C(O)CNC(=O)c1c(O)c2cccc3c2n(c1=O)C(c1ccc(C(F)(F)F)cc1)CO3 (racemic) [Example 1]
7.80

Look up pIC50 with Human HIF-PHD2 (Homo sapiens) for this compound: O=C(O)CNC(=O)c1c(O)c2cccc3c2n(c1=O)C(Cc1ccc(Cl)cc1)CC3 (racemic)
7.82

Look up pIC50 with Human HIF-PHD2 (Homo sapiens) for this compound: O=C(O)CNC(=O)c1c(O)c2ccc(F)c3c2n(c1=O)CC(c1ccc(C(F)(F)F)cc1)O3 (centres unmarked)
8.37

Look up pIC50 with Human HIF-PHD2 (Homo sapiens) for this compound: O=C(O)CNC(=O)c1c(O)c2cccc3c2n(c1=O)C(c1ccc(C(F)(F)F)cc1)CO3 (single isomer, unassigned) [Example 1b]
7.88

Look up pIC50 with Human HIF-PHD2 (Homo sapiens) for this compound: O=C(O)CNC(=O)c1c(O)c2ccc(F)c3c2n(c1=O)C(c1ccc(C(F)(F)F)cc1)CN3 (centres unmarked)
7.89

Look up pIC50 with Human HIF-PHD2 (Homo sapiens) for this compound: CS(=O)(=O)c1cc2c3c(c1)c(O)c(C(=O)NCC(=O)O)c(=O)n3CC(c1ccc(C(F)(F)F)cc1)O2 (single isomer, unassigned) [Example 17]
9.05

Look up pIC50 with Human HIF-PHD2 (Homo sapiens) for this compound: CS(=O)(=O)Nc1ccc(-c2ccc3c(O)c(C(=O)NCC(=O)O)c(=O)n4c3c2OCC4c2ccc(C(F)(F)F)cc2)cc1 (centres unmarked)
7.42

Look up pIC50 with Human HIF-PHD2 (Homo sapiens) for this compound: O=C(O)CNC(=O)c1c(O)c2cccc3c2n(c1=O)CC(c1ccc(C(F)(F)F)cc1)O3 (centres unmarked)
8.19

Look up pIC50 with Human HIF-PHD2 (Homo sapiens) for this compound: O=C(O)CNC(=O)c1c(O)c2cc(-c3ccn[nH]3)cc3c2n(c1=O)C(c1ccc(C(F)(F)F)cc1)CO3 (centres unmarked)
7.92

Look up pIC50 with Human HIF-PHD2 (Homo sapiens) for this compound: CN1CC(c2ccc(C(F)(F)F)cc2)n2c(=O)c(C(=O)NCC(=O)O)c(O)c3cccc1c32 (centres unmarked)
7.17

Look up pIC50 with Human HIF-PHD2 (Homo sapiens) for this compound: NC(=O)c1ccc(-c2ccc(C3COc4cccc5c(O)c(C(=O)NCC(=O)O)c(=O)n3c45)cc2)cc1 (centres unmarked)
8.21

Look up pIC50 with Human HIF-PHD2 (Homo sapiens) for this compound: N#Cc1ccc2c3c1c(O)c(C(=O)NCC(=O)O)c(=O)n3CC(c1ccc(C(F)(F)F)cc1)S2 (centres unmarked)
8.82

Look up pIC50 with Human HIF-PHD2 (Homo sapiens) for this compound: O=C(O)CNC(=O)c1c(O)c2cc(OC(F)(F)F)cc3c2n(c1=O)CC(c1ccc(C(F)(F)F)cc1)O3 (centres unmarked)
8.02

----------
biological target: Human HIF-PHD2 (Homo sapiens); construct: FLAG-tagged full length PHD2 expressed in and purified from baculovirus-infected Sf9 cells; FLAG; made in house; host or cells: baculovirus-infected Sf9 cells; experiment: Inhibition of the hydroxylation of a HIF peptide by PHD2 (time resolved fluorescence, 384-well); assay type: biochemical; details: FLAG-tagged full length PHD2; 0.2 μM 2-oxoglutarate, 0.5 μM HIF-1α peptide; 45 minutes at room temperature; read-out: MS m/z (M + 1)+ and human HIF-PHD2 IC50
Rule: IC50 below 9 nM gives met. Equal to or above 9 nM gives not met.

> print(dat)
                                   compound                  tested.system    class
1  O=C(O)CNC(=O)c1c(O)c2ccc(Br)c3c2n(c1=O)C(c1ccc(C(F)(F)F)cc1)CO3 (stereo not shown) [Example 161]  Human HIF-PHD2 (Homo sapiens)  not met

Please indicate whether the reported IC50 of O=C(O)CNC(=O)c1c(O)c2cccc3c2n(c1=O)C(c1cnco1)CO3 (stereo not shown) [Example 173] is strictly below 9 nM.
not met

Please indicate whether the reported IC50 of O=C(O)CNC(=O)c1c(O)c2ccc(F)c3c2n(c1=O)C(c1ccc(C(F)(F)F)cc1)CO3 (stereo not shown) [Example 164] is strictly below 9 nM.
not met

Please indicate whether the reported IC50 of O=C(O)CNC(=O)c1c(O)c2ccc(-c3ccn[nH]3)c3c2n(c1=O)C(c1ccc(C(F)(F)F)cc1)CO3 (stereo not shown) [Example 140] is strictly below 9 nM.
not met

Please indicate whether the reported IC50 of O=C(O)CNC(=O)c1c(O)c2c(F)cc(F)c3c2n(c1=O)C(c1cncs1)CO3 (stereo not shown) [Example 175] is strictly below 9 nM.
met

Please indicate whether the reported IC50 of O=C(O)CNC(=O)c1c(O)c2c(F)ccc3c2n(c1=O)CC(c1ccc(C(F)(F)F)cc1)O3 (single isomer, unassigned) [Example 69] is strictly below 9 nM.
met
